Assignment: determine reported speed of sound for the given compounds.
- cond: 303.15 K; 101 kPa; Liquid
One number for each entry, in m/s.

Record excerpt, results attached:
C[S+](C)[O-] [dimethyl sulfoxide]    1468.3
CN(C)C=O [dimethylformamide]    1438.4
CCC[n+]1ccn(C)c1.[Br-] [1-methyl-3-propylimidazolium bromide]    1659.9

From here, focus on the item given below.
Value of speed of sound reported for the compound CC#N is 1258.5

* * *

- cond: 293.15 K; 101 kPa; Liquid
Hi there, I'd appreciate the recorded speed of sound for every entry that follows.
Give bare numbers, in m/s.

C[S+](C)[O-] [dimethyl sulfoxide]    1502.2
CCC[n+]1ccn(C)c1.[Br-] [1-methyl-3-propylimidazolium bromide]    1685
CC#N    1299

Moving on to the next compound.
Measured speed of sound of CN(C)C=O [dimethylformamide] : 1477.3

* * *

- cond: 303.15 K; 101 kPa; Liquid
Numbers after ± are expanded uncertainties.
For each of the compounds below, state its mass density.

Recorded results for 3 compounds are shown here.
CC#N    771.183 ± 1.5 kg/m3
CN(C)C=O [dimethylformamide]    939.142 ± 0.67 kg/m3
CCC[n+]1ccn(C)c1.[Br-] [1-methyl-3-propylimidazolium bromide]    1312.6 ± 3.2 kg/m3

// next entry
The compound listed as C[S+](C)[O-] [dimethyl sulfoxide] has a reported mass density of 1090.25 ± 0.81 kg/m3

* * *

- cond: 308.15 K; 101 kPa; Liquid
± gives the expanded uncertainty stated by the source.
quantity: mass density
Could you write the number and then its unit?

CN(C)C=O [dimethylformamide]    934.357 ± 0.69 kg/m3
C[S+](C)[O-] [dimethyl sulfoxide]    1085.23 ± 0.78 kg/m3
CC#N [acetonitrile]    765.725 ± 1.5 kg/m3

Let us examine a further case.
The compound identified as CCC[n+]1ccn(C)c1.[Br-] [1-methyl-3-propylimidazolium bromide] registered its mass density at 1308.97 ± 3.2 kg/m3

* * *

- cond: 298.15 K; 101 kPa; Liquid
± gives the expanded uncertainty stated by the source.
Would you mind telling me the reported mass density of each entry?

CN(C)C=O [dimethylformamide]    943.917 ± 0.64 kg/m3
CC#N    776.609 ± 1.4 kg/m3
C[S+](C)[O-] [dimethyl sulfoxide]    1095.28 ± 0.83 kg/m3

Now consider a different compound.
Record CCC[n+]1ccn(C)c1.[Br-] [1-methyl-3-propylimidazolium bromide] , field mass density: 1316.22 ± 3.3 kg/m3

* * *

- cond: 298.15 K; 101 kPa; Liquid
Numbers after ± are expanded uncertainties.
quantity: speed of sound
Param answer (str): number followed by unit.

Solved entries (count: 2):
CCC[n+]1ccn(C)c1.[Br-] [1-methyl-3-propylimidazolium bromide]    1672 ± 2.6 m/s
CC#N    1278.8 ± 1.4 m/s

Hi, could you look up speed of sound for each item in my list?
1. C[S+](C)[O-] [dimethyl sulfoxide]
2. CN(C)C=O [dimethylformamide]

1: 1485.2 ± 1.5 m/s; 2: 1457.8 ± 1.5 m/s

* * *

- cond: 288.15 K; 101 kPa; Liquid
quantity: mass density (kg/m3)
Numbers only, in kg/m3.

Here is how some compounds turned out for mass density.
CCC[n+]1ccn(C)c1.[Br-] [1-methyl-3-propylimidazolium bromide]    1323.47
C[S+](C)[O-] [dimethyl sulfoxide]    1105.34
CC#N    787.376

Turning to the following compound.
Field mass density (entry CN(C)C=O [dimethylformamide] ) reads 953.442
